- Target: Human immunodeficiency virus type 1 reverse transcriptase (Human immunodeficiency virus 1)
- Assay overview: Concentration which reduced the cytopathic effect of HIV-1 in MT-4 infected cells
- Type: functional, cell-based
Decide using ED50 alone. Strictly below 200 nM: TRUE. Equal to or above 200 nM: FALSE.

Some solved entries appear below for comparison.
Given smiles	Assigned class
CCCCCCOc1cccc(CC/N=C(\S)Nc2nccs2)c1	FALSE
S=C(NCCCc1ccccc1)Nc1nccs1	FALSE
CC(C)c1csc(NC(=S)NCCc2ccccc2)n1	FALSE
Fc1ccccc1CCNC(=S)Nc1nccs1	TRUE
N#Cc1csc(NC(=S)NCCc2c(F)cccc2F)n1	TRUE

Problem: For the compound COc1ccccc1CCNC(=S)Nc1nccs1 , is ED50 under 200 nM?
FALSE

Problem: For the compound CCc1csc(NC(=S)NCCc2ccccc2)n1 , is ED50 under 200 nM?
FALSE

Problem: For the compound Cc1ccnc2c1NC(=O)c1cccnc1N2C1CC1 , is ED50 under 200 nM?
TRUE

Problem: For the compound S=C(NCCc1ccccc1)Nc1nccs1 , is ED50 under 200 nM?
FALSE

Problem: For the compound Fc1cccc(CCNC(=S)Nc2nccs2)c1 , is ED50 under 200 nM?
FALSE

Problem: For the compound COc1ccc(CCNC(=S)Nc2nccs2)cc1 , is ED50 under 200 nM?
FALSE

Problem: For the compound Cc1cn([C@H]2C[C@H](N=[N+]=[N-])[C@@H](CO)O2)c(=O)[nH]c1=O , is ED50 under 200 nM?
TRUE

Problem: For the compound COc1ccc(OC)c(CCNC(=S)Nc2nccs2)c1 , is ED50 under 200 nM?
FALSE

Problem: For the compound S=C(NCCc1ccccc1)Nc1nncs1 , is ED50 under 200 nM?
FALSE

Problem: For the compound [N-]=[N+]=Nc1ccccc1CC/N=C(\S)Nc1nccs1 , is ED50 under 200 nM?
TRUE

Problem: For the compound O=C(NCCc1ccccc1)Nc1nccs1 , is ED50 under 200 nM?
FALSE

Problem: For the compound S=C(NCc1ccccc1)Nc1nccs1 , is ED50 under 200 nM?
FALSE
